The origin of these recorded values is paper PMC7525811.

Biological target: full-length human CRM1(E571K) (human, UniProt O14980 1-1071, E571K)
Sequence (O14980 whole entry E571K): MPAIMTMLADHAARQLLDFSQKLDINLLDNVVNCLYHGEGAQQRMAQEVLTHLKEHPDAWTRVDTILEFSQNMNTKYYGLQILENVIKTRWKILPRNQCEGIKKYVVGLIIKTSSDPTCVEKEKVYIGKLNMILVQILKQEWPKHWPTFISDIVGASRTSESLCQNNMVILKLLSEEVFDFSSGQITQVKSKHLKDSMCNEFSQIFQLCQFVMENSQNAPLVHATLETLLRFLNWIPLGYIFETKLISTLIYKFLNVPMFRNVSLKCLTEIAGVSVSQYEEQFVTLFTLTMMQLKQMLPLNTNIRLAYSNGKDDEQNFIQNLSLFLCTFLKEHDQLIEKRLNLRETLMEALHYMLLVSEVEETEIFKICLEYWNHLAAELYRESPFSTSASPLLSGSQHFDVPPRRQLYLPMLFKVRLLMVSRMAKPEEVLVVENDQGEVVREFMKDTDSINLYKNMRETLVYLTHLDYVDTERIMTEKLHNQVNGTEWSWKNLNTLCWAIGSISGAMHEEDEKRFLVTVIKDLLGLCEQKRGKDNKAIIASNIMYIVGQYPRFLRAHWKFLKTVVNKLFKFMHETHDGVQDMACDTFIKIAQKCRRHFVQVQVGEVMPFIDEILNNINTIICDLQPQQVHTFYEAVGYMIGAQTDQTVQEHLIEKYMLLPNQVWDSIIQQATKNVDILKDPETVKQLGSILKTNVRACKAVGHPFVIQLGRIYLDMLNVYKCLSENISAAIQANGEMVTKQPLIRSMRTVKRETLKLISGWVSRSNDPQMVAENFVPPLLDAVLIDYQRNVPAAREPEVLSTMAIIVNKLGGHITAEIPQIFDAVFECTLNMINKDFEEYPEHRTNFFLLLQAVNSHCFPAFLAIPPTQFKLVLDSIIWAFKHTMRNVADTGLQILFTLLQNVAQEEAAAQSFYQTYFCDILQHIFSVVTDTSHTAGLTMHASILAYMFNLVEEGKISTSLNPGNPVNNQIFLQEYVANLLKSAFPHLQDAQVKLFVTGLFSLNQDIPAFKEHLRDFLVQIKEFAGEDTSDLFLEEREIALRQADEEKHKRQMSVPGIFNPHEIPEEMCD
Measured attribute: Kd
Record the result as number plus unit.

Challenge: # Kd lookup, item TNLEALQKKLEELALDEQ [MBP-Mek1^NES(E41A)]
Response given: 6 nM
